B1: library; numbered along this chain (parent)
chain: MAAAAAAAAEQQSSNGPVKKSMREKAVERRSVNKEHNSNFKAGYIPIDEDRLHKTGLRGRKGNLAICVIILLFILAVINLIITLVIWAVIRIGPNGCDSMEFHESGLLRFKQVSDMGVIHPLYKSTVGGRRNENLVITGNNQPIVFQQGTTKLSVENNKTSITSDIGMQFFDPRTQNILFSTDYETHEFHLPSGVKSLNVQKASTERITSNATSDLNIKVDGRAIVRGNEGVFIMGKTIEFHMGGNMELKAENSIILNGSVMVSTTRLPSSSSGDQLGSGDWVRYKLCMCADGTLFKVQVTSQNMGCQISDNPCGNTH

Variants of: B1
Test name: SGCB cell-surface expression functional score (HA stain, bin4 vs bin1, normalised to synonymous) (log10 ratio); higher = more cell-surface SGCB (functional)
Reported SGCB cell-surface expression functional score (log10) is given for each of the following variants.

Worked set:
Change	Observed
N217R	0.7
P313Q	-0.3
G43Q	0.32

Input `R51C` , output reported SGCB cell-surface expression functional score (log10).
-0.24

Determine from records and report SGCB cell-surface expression functional score (log10) for `A7G`
0.2

Entry `A7S` needs its SGCB cell-surface expression functional score (log10) filled in; supply it.
-0.09

Output measured SGCB cell-surface expression functional score (log10) for this item: `A251F`
-0.98

Read off the recorded SGCB cell-surface expression functional score (log10) for `S31Q`
-0.35

Fill in SGCB cell-surface expression functional score (log10) for record `K286I`
-0.67

Could you please provide reported SGCB cell-surface expression functional score (log10) for `A5F` ? Thanks!
0.61

Specify measured SGCB cell-surface expression functional score (log10) for `I45D` .
0.9

Identify the reported SGCB cell-surface expression functional score (log10) for the following entry. `P173H`
0.19

Read off the recorded SGCB cell-surface expression functional score (log10) for `S181C`
-0.89

Taken from the supplement of paper PMC10266784.
